Cited source: the supplement of paper PMC10567573

B1: LMNB1 (parent)
chain: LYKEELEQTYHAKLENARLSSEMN

# Variants of: B1
# Assay text: protein stability index of a GFP-peptide fusion (GPS, HEK-293T) (PSI 1-6); higher = more stable;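 further: lentivirally expressed fusions sorted by FACS into six bins by GFP to DsRed ratio, PSI derived from sequencing read proportions per bin multiplied by bin number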
# Measurement setup: c terminus: a fixed tail appended
Listed here: items and their measured protein stability index.
Please reply with the number alone, leaving off any unit.

# annotated cases, reported protein stability index shown
- Alteration: "S20I"
  protein stability index: 2.81
- Alteration: "E22A"
  protein stability index: 2.63
- Alteration: "E22H"
  protein stability index: 2.22
- Alteration: "E15H"
  protein stability index: 2.38
- Alteration: "A17L"
  protein stability index: 2.44

protein stability index reading for N16A : 2.98

The variant listed as A17V shows protein stability index equal to 1.41

E5P has a reported protein stability index of 3.1

Reported protein stability index for Y2T was 4.08

Sure, the documented protein stability index for L1H is 3.19

Looking up E15L , I found its protein stability index recorded as 2.9
